# run description: Tanguay_ZF_120hpf_PIG_legacy: (Legacy) Oregon State University Tanguay Lab 120 Hour Post-fertilization zebrafish Assay for Pigmentation Malformation (AID 2283650);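 note: dechorionated Tropical 5D zebrafish embryos exposed singly from 6 to 120 hpf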
Inconclusive results are not listed. Activity calls are given as the source filed them. Rule for the calls: active = hit-call score of the fitted dose curve at least 0.9, where 1 is the maximum; inconclusive = response in the unintended direction; inactive = score below 0.9.
Pick one and only one: active, inactive

NS(=O)(=O)c1cc2c(cc1Cl)NCNS2(=O)=O : inactive
CCCCCCCCCCCCCCCC : inactive

Test call, this compound: COc1cc(C=O)ccc1O
active

Test call, this compound: CNC(=O)[C@H]1O[C@@H](n2cnc3c(NCc4cc(Cl)ccc4OCc4cc(C)no4)ncnc32)[C@H](O)[C@@H]1N
inactive

Test call, this compound: CC1(C)CC(N=C=O)CC(C)(CN=C=O)C1 (stereo not drawn)
inactive

Test call, this compound: CC(CO)OC(C)CO (stereo not drawn) (tested in a mixture with another compound)
inactive

Test call, this compound: O=c1[nH]cc(F)c(=O)[nH]1
inactive

Test call, this compound: O=C(N[C@@H](Cc1ccccc1)[C@@H](O)C(=O)N1C[C@@H](O)[C@@H](O)C1)c1cc2cc(Cl)ccc2[nH]1
inactive

Test call, this compound: Cc1ccc2ncccc2c1
inactive

Test call, this compound: COc1ccc(C)cc1N
inactive

Test call, this compound: O=C(O)CCCCC(=O)O
inactive

Test call, this compound: CCCCCCCCCCCCCO
inactive

Test call, this compound: c1cc(-c2ccncc2)ccn1
inactive
